Data provenance is paper PMC7587337.

# EXPERIMENTAL SYSTEM: fatty-acid amide hydrolase (FAAH) (Homo sapiens, UniProt O00519)
# Sequence (O00519 whole entry): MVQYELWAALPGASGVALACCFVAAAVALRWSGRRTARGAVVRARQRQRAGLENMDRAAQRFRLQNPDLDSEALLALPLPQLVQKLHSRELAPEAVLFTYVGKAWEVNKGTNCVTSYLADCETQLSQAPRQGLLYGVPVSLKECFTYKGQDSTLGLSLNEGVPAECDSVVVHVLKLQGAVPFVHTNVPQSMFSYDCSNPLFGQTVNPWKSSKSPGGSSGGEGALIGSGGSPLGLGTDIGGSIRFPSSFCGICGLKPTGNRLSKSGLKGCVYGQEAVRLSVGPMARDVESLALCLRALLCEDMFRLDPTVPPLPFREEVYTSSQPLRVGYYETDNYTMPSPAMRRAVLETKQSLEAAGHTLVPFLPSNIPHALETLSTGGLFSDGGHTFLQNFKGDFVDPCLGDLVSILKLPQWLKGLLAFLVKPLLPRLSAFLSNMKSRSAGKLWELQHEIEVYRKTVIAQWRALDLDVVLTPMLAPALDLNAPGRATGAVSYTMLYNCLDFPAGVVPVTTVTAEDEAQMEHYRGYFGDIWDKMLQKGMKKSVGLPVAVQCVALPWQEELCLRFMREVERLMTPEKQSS
VALUE TYPE: pIC50
Bear in mind: pIC50 is minus log10 of a mol/L concentration; give just that figure.

Asked: Observed pIC50 on fatty-acid amide hydrolase (FAAH) (Homo sapiens, UniProt O00519) for O=c1c(O)c(-c2ccc(O)cc2)oc2cc(O)cc(O)c12 , please.
Given back: 5.97
